The reported measurements were obtained from patent US12404262B2.

- protocolConditions: 0.1N HCl, 1.0% DMSO, 24-hour incubation at ambient temperature, maximum theoretical 100 μM; first value of the cell
propertyMeasured: pH 2 solubility (μM)

[[record]]
molecule = "CC(C)(C#Cc1ccc(-c2ccc(Cl)c3c(N(C(=O)O[C@H]4C[C@@H](NC(=N)N)C4)S(C)(=O)=O)nn(CC(F)(F)F)c23)c([C@H](Cc2cc(F)cc(F)c2)NC(=O)Cn2nc(C(F)(F)F)c3c2C(F)(F)[C@@H]2C[C@H]32)n1)S(C)(=O)=O [Compound 127]"
propertymeasured = "pH 2 solubility"
endpointvalue = 8

[[record]]
molecule = "CC(C)(C#Cc1ccc(-c2ccc(Cl)c3c(N(C(=O)OCCCO)S(C)(=O)=O)nn(CC(F)(F)F)c23)c([C@H](Cc2cc(F)cc(F)c2)NC(=O)Cn2nc(C(F)(F)F)c3c2C(F)(F)[C@@H]2C[C@H]32)n1)S(C)(=O)=O [Compound 97]"
propertymeasured = "pH 2 solubility"
endpointvalue = 1

[[record]]
molecule = "CC(C)(C#Cc1ccc(-c2ccc(Cl)c3c(N(C(=O)NCC(=O)O)S(C)(=O)=O)nn(CC(F)(F)F)c23)c([C@H](Cc2cc(F)cc(F)c2)NC(=O)Cn2nc(C(F)(F)F)c3c2C(F)(F)[C@@H]2C[C@H]32)n1)S(C)(=O)=O [Compound 72]"
propertymeasured = "pH 2 solubility"
endpointvalue = 1

[[record]]
molecule = "CC(C)(C#Cc1ccc(-c2ccc(Cl)c3c(N(C(=O)OCCNC(=O)C(=O)O)S(C)(=O)=O)nn(CC(F)(F)F)c23)c([C@H](Cc2cc(F)cc(F)c2)NC(=O)Cn2nc(C(F)(F)F)c3c2C(F)(F)[C@@H]2C[C@H]32)n1)S(C)(=O)=O [Compound 122]"
propertymeasured = "pH 2 solubility"
endpointvalue = 1

[[record]]
molecule = "CC(C)(C#Cc1ccc(-c2ccc(Cl)c3c(N(C(=O)NC(C(=O)O)C(=O)O)S(C)(=O)=O)nn(CC(F)(F)F)c23)c([C@H](Cc2cc(F)cc(F)c2)NC(=O)Cn2nc(C(F)(F)F)c3c2C(F)(F)[C@@H]2C[C@H]32)n1)S(C)(=O)=O [Compound 53]"
propertymeasured = "pH 2 solubility"
endpointvalue = 1

[[record]]
molecule = "CC(C)(C#Cc1ccc(-c2ccc(Cl)c3c(N(C(=O)NC(CO)CO)S(C)(=O)=O)nn(CC(F)(F)F)c23)c([C@H](Cc2cc(F)cc(F)c2)NC(=O)Cn2nc(C(F)(F)F)c3c2C(F)(F)[C@@H]2C[C@H]32)n1)S(C)(=O)=O [Compound 36]"
propertymeasured = "pH 2 solubility"
endpointvalue = 1


---

Catalogue of pH 7 solubility values
- protocolConditions: 1×PBS buffer (pH 7.4), 1.0% DMSO, 24-hour incubation at ambient temperature, maximum theoretical 100 μM; second value of the cell
propertyMeasured: pH 7 solubility (μM)

[[record]]
smilesstr = "C[C@H](N)C(=O)OCN(c1nn(CC(F)(F)F)c2c(-c3ccc(C#CC(C)(C)S(C)(=O)=O)nc3[C@H](Cc3cc(F)cc(F)c3)NC(=O)Cn3nc(C(F)(F)F)c4c3C(F)(F)[C@@H]3C[C@H]43)ccc(Cl)c12)S(C)(=O)=O"
propertymeasured = "pH 7 solubility"
endpointvalue = 2

[[record]]
smilesstr = "CC(C)(C#Cc1ccc(-c2ccc(Cl)c3c(N(COC(=O)CCP(=O)(O)O)S(C)(=O)=O)nn(CC(F)(F)F)c23)c([C@H](Cc2cc(F)cc(F)c2)NC(=O)Cn2nc(C(F)(F)F)c3c2C(F)(F)[C@@H]2C[C@H]32)n1)S(C)(=O)=O"
propertymeasured = "pH 7 solubility"
endpointvalue = 1

[[record]]
smilesstr = "CN(CCCC(=O)O)C(=O)N(c1nn(CC(F)(F)F)c2c(-c3ccc(C#CC(C)(C)S(C)(=O)=O)nc3[C@H](Cc3cc(F)cc(F)c3)NC(=O)Cn3nc(C(F)(F)F)c4c3C(F)(F)[C@@H]3C[C@H]43)ccc(Cl)c12)S(C)(=O)=O"
propertymeasured = "pH 7 solubility"
endpointvalue = 10

[[record]]
smilesstr = "CN(CCCN)C(=O)N(c1nn(CC(F)(F)F)c2c(-c3ccc(C#CC(C)(C)S(C)(=O)=O)nc3[C@H](Cc3cc(F)cc(F)c3)NC(=O)Cn3nc(C(F)(F)F)c4c3C(F)(F)[C@@H]3C[C@H]43)ccc(Cl)c12)S(C)(=O)=O"
propertymeasured = "pH 7 solubility"
endpointvalue = 14

[[record]]
smilesstr = "CC(C)(C#Cc1ccc(-c2ccc(Cl)c3c(N(C(=O)OCCCOP(=O)(O)O)S(C)(=O)=O)nn(CC(F)(F)F)c23)c([C@H](Cc2cc(F)cc(F)c2)NC(=O)Cn2nc(C(F)(F)F)c3c2C(F)(F)[C@@H]2C[C@H]32)n1)S(C)(=O)=O"
propertymeasured = "pH 7 solubility"
endpointvalue = 100

[[record]]
smilesstr = "CN(CCN(CCC(=O)O)C(=O)OCOP(=O)(O)O)C(=O)N(c1nn(CC(F)(F)F)c2c(-c3ccc(C#CC(C)(C)S(C)(=O)=O)nc3[C@H](Cc3cc(F)cc(F)c3)NC(=O)Cn3nc(C(F)(F)F)c4c3C(F)(F)[C@@H]3C[C@H]43)ccc(Cl)c12)S(C)(=O)=O"
propertymeasured = "pH 7 solubility"
endpointvalue = 100

[[record]]
smilesstr = "CC(C)(C#Cc1ccc(-c2ccc(Cl)c3c(N(C(=O)OCOC(=O)/C=C/C(=O)O)S(C)(=O)=O)nn(CC(F)(F)F)c23)c([C@H](Cc2cc(F)cc(F)c2)NC(=O)Cn2nc(C(F)(F)F)c3c2C(F)(F)[C@@H]2C[C@H]32)n1)S(C)(=O)=O"
propertymeasured = "pH 7 solubility"
endpointvalue = 22

[[record]]
smilesstr = "CN(C(=O)N(c1nn(CC(F)(F)F)c2c(-c3ccc(C#CC(C)(C)S(C)(=O)=O)nc3[C@H](Cc3cc(F)cc(F)c3)NC(=O)Cn3nc(C(F)(F)F)c4c3C(F)(F)[C@@H]3C[C@H]43)ccc(Cl)c12)S(C)(=O)=O)[C@@H](CCC(=O)O)C(=O)OCOP(=O)(O)O"
propertymeasured = "pH 7 solubility"
endpointvalue = 18


---

- test: Solubility in simulated intestinal fluids (FaSSIF/FeSSIF)
- protocolConditions: fasted state simulated intestinal fluid (FaSSIF), 25 °C, fassif, thermodynamic from solid
propertyMeasured: solubility (µg/mL)

[[record]]
compound = "CC(C)(C#Cc1ccc(-c2ccc(Cl)c3c(N(C(=O)OC[C@H](CC(=O)O)NC(=O)C(=O)O)S(C)(=O)=O)nn(CC(F)(F)F)c23)c([C@H](Cc2cc(F)cc(F)c2)NC(=O)Cn2nc(C(F)(F)F)c3c2C(F)(F)[C@@H]2C[C@H]32)n1)S(C)(=O)=O [Compound 131]"
resultunit = "µg/mL"
endpointvalue = 816

[[record]]
compound = "CN(CCCC(=O)O)C(=O)N(c1nn(CC(F)(F)F)c2c(-c3ccc(C#CC(C)(C)S(C)(=O)=O)nc3[C@H](Cc3cc(F)cc(F)c3)NC(=O)Cn3nc(C(F)(F)F)c4c3C(F)(F)[C@@H]3C[C@H]43)ccc(Cl)c12)S(C)(=O)=O [Compound 46]"
resultunit = "µg/mL"
endpointvalue = 9

[[record]]
compound = "CC(C)(C#Cc1ccc(-c2ccc(Cl)c3c(N(C(=O)OCCNC(=N)N)S(C)(=O)=O)nn(CC(F)(F)F)c23)c([C@H](Cc2cc(F)cc(F)c2)NC(=O)Cn2nc(C(F)(F)F)c3c2C(F)(F)[C@@H]2C[C@H]32)n1)S(C)(=O)=O [Compound 123]"
resultunit = "µg/mL"
endpointvalue = 120

[[record]]
compound = "CC(C)(C#Cc1ccc(-c2ccc(Cl)c3c(N(C(=O)NC(CP(=O)(O)O)C(=O)O)S(C)(=O)=O)nn(CC(F)(F)F)c23)c([C@H](Cc2cc(F)cc(F)c2)NC(=O)Cn2nc(C(F)(F)F)c3c2C(F)(F)[C@@H]2C[C@H]32)n1)S(C)(=O)=O (stereo partly shown) [Compound 56]"
resultunit = "µg/mL"
endpointvalue = 1080


---

- protocolConditions: 1×PBS buffer (pH 7.4), 1.0% DMSO, 24-hour incubation at ambient temperature, maximum theoretical 100 μM; second value of the cell
propertyMeasured: pH 7 solubility

[[record]]
smilesstr = "C[C@H](OC(=O)N(c1nn(CC(F)(F)F)c2c(-c3ccc(C#CC(C)(C)S(C)(=O)=O)nc3[C@H](Cc3cc(F)cc(F)c3)NC(=O)Cn3nc(C(F)(F)F)c4c3C(F)(F)[C@@H]3C[C@H]43)ccc(Cl)c12)S(C)(=O)=O)C(=O)O"
propertymeasured = "pH 7 solubility"
endpointvalue = "1/1 μM"

[[record]]
smilesstr = "CC(C)(C#Cc1ccc(-c2ccc(Cl)c3c(N(C(=O)NCCO)S(C)(=O)=O)nn(CC(F)(F)F)c23)c([C@H](Cc2cc(F)cc(F)c2)NC(=O)Cn2nc(C(F)(F)F)c3c2C(F)(F)[C@@H]2C[C@H]32)n1)S(C)(=O)=O"
propertymeasured = "pH 7 solubility"
endpointvalue = "2 μM"

[[record]]
smilesstr = "CC(C)(CO)NC(=O)N(c1nn(CC(F)(F)F)c2c(-c3ccc(C#CC(C)(C)S(C)(=O)=O)nc3[C@H](Cc3cc(F)cc(F)c3)NC(=O)Cn3nc(C(F)(F)F)c4c3C(F)(F)[C@@H]3C[C@H]43)ccc(Cl)c12)S(C)(=O)=O"
propertymeasured = "pH 7 solubility"
endpointvalue = "2 μM"

[[record]]
smilesstr = "C[C@@H](C(=O)O)N(CCOC(=O)N(c1nn(CC(F)(F)F)c2c(-c3ccc(C#CC(C)(C)S(C)(=O)=O)nc3[C@H](Cc3cc(F)cc(F)c3)NC(=O)Cn3nc(C(F)(F)F)c4c3C(F)(F)[C@@H]3C[C@H]43)ccc(Cl)c12)S(C)(=O)=O)C(=O)OCOP(=O)(O)O"
propertymeasured = "pH 7 solubility"
endpointvalue = "79 μM"

